system: nude mice, LX-1 lung xenograft intrarenal, tumor weight T/C; experiment: NCI In Vivo Anticancer Drug Screen. Data for tumor model Human Lung LX-1 Xenograft (intrarenal inoculation) in NU/NU Swiss (nude) mice; settings: endpoint: mean tumor weight change; dose: 400.0 mg/kg/injection; schedule: Q04DX003 (sc); vehicle: saline; higher = larger tumour
Results filed as inconclusive are left out.
Can you tell me T/C for the items I'm about to list?

T/C recorded for this compound, `CC1(C)COCN1COCCOCN1COCC1(C)C` , is 191 % of control

Quick note, T/C for Nc1ncn(C2OC(CO)C(O)C2O)c(=O)n1 (centres undefined) landed at 35 % of control

Entry CCOC(=O)C(N)CSC(=O)NC (centres undefined) ; T/C = 94 % of control

Sure, the documented T/C for `O=[N+]([O-])O.[Ga]` is 86 % of control

// field: T/C; key: `c1csc(C[N+]23CN4CN(CN(C4)C2)C3)c1` ; value = 92 % of control

Looking up Nc1ncnc2c1ncn2C1OC(CO)C(O)C1O (centres undefined) , I see its T/C listed as 20 % of control

Lookup result for `CN1CCN(c2ccc3nc(-c4ccc5nc(-c6ccc(O)cc6)[nH]c5c4)[nH]c3c2)CC1` ; measured T/C: 73 % of control

Reported T/C of CC(=O)C1=C(O)C2(O)C(=O)c3c(c(C)c4ccc(C)c(O)c4c3O)CC2C(N)C1=O (centres undefined) : 51 % of control

Per the records, this compound ( CC(C)NCC(O)COc1ccc(O)c(O)c1 (centres undefined) ) has T/C equal to 114 % of control

====

test system: nude mice, LX-1 lung xenograft intrarenal, tumor weight T/C; assay: NCI In Vivo Anticancer Drug Screen. Data for tumor model Human Lung LX-1 Xenograft (intrarenal inoculation) in NU/NU Swiss (nude) mice; settings: endpoint: mean tumor weight change; dose: 300.0 mg/kg/injection; schedule: Q04DX003 (sc); vehicle: water; higher = larger tumour
Inconclusive results are not listed.
Exercise: for every item that follows, state its recorded T/C.

Item: CCCCCCCCCCCC(=O)NC1CC(O[C@H]2C[C@](O)(C(=O)CO)Cc3c(O)c4c(c(O)c32)C(=O)c2c(OC)cccc2C4=O)OC(C)C1O (some centres not stated) | T/C: 5 % of control

// T/C lookup, compound = COc1cccc2c1C(=O)c1c(O)c3c(c(O)c1C2=O)CC(O)(C(=O)CO)CC3OC1CC(N)C(O)C(C)O1 (configuration not stated) , result: 46 % of control

Just so you know, measured T/C for CCCCNC(C)C1(O)Cc2c(O)c3c(c(O)c2C(OC2CC(N)C(O)C(C)O2)C1)C(=O)c1c(OC)cccc1C3=O (configuration not stated) came out at 99 % of control

Given item `COc1ccc(OC)c(Cc2cnc3nc(N)nc(N)c3c2C)c1` , the value recorded as its T/C is 94 % of control

Entry BrC1CC(Br)c2c1c1c(c3c2C(Br)CC3Br)C(Br)CC1Br (configuration not stated) ; T/C = 46 % of control

Field T/C (entry `CC(C)[C@](O)(C(=O)OCC1=CCN2CC[C@@H](O)[C@@H]12)[C@H](C)O` ) reads 91 % of control

The reported T/C of the compound `NC(=O)Oc1cccc(OC(N)=O)c1` was 105 % of control

====

Task for the reader: assign each of the following compounds its reported T/C.
system: nude mice, LX-1 lung xenograft intrarenal, tumor weight T/C; assay: NCI In Vivo Anticancer Drug Screen. Data for tumor model Human Lung LX-1 Xenograft (intrarenal inoculation) in NU/NU Swiss (nude) mice; details: endpoint: mean tumor weight change; dose: 18.75 mg/kg/injection; schedule: Q04DX003 (sc); vehicle: Klucel (hydroxypropylcellulose) (HPC); higher = larger tumour
Inconclusive results are not listed.

Measured T/C, Nc1ncnc2c1nnn2C1OC(CO)C(O)C1O (stereo not drawn) : 102 % of control

The measured T/C associated with `C=C1C(=O)C23[C@H](O)C1CC[C@H]2[C@]12COC3(O)[C@@H](O)[C@@H]1C(C)(C)CC[C@@H]2O` reads 105 % of control

Value of measured T/C for the entry `O=C(C#Cc1ccccc1)c1ccccc1` : 87 % of control

T/C recorded for this compound, `C=CS(C=C)=NS(=O)(=O)c1ccc(C)cc1` , is 108 % of control

Recorded T/C (compound `Cc1c2ccc3ccccc3c2c[n+]2ccccc12` ): 72 % of control

So, `CCC[CH2][Hg][Cl]` ? Its T/C was 69 % of control

Reported T/C ( C1CCC2OCCOCCOC3CCCCC3OCCOCCOC2C1 (stereo not drawn) ) = 159 % of control

Consider `CN(C)c1ccc2c(N(C)C)cc(N(C)C)nc2c1` . Its measured T/C is 123 % of control

====

test system: nude mice, LX-1 lung xenograft intrarenal, tumor weight T/C; test: NCI In Vivo Anticancer Drug Screen. Data for tumor model Human Lung LX-1 Xenograft (intrarenal inoculation) in NU/NU Swiss (nude) mice; conditions: endpoint: mean tumor weight change; dose: 75.0 mg/kg/injection; schedule: Q04DX003 (sc); vehicle: saline; higher = larger tumour
Inconclusive results are not listed.
parameter_measured: T/C

Sure, the documented T/C for `N=C(N)Sc1cc(O)ccc1O` is 91 % of control

For `Oc1ccc(CCl)c2cccnc12` the compound record lists T/C as 91 % of control

So for CCOC(=O)C(N)C[S][Sn]([CH3])([CH3])[Cl] (stereo not drawn) , the logged T/C turned out to be 54 % of control

====

Task for the reader: assign each of the following molecules its reported T/C.
test system: nude mice, LX-1 lung xenograft intrarenal, tumor weight T/C; test: NCI In Vivo Anticancer Drug Screen. Data for tumor model Human Lung LX-1 Xenograft (intrarenal inoculation) in NU/NU Swiss (nude) mice; conditions: endpoint: mean tumor weight change; dose: 100.0 mg/kg/injection; schedule: Q01DX010 (sc); vehicle: Klucel (hydroxypropylcellulose) (HPC); higher = larger tumour
Inconclusive results are not listed.

Let me check: `CS(=O)(=O)OCCN(CCOS(C)(=O)=O)c1ccc(C=Nc2ccc(-c3csc(COc4ccccc4)n3)cc2)cc1` , system nude mice, LX-1 lung xenograft intrarenal, tumor weight T/C, measured T/C is 106 % of control

Value (T/C, nude mice, LX-1 lung xenograft intrarenal, tumor weight T/C) for record `C[N+](C)(C)c1cc2c(nn1)Nc1ccccc1S2` = 89 % of control

Reported T/C (nude mice, LX-1 lung xenograft intrarenal, tumor weight T/C) for entry `COC(=O)Nc1cccc(-c2nc3ccc(NC(=O)OC)cc3c(=O)n2-c2ccccc2)c1` is 93 % of control

Entry COC1C(O)C(C)OC(OC2C(Oc3cccc4c(O)c5c(=O)oc6ccc(C)c7c(=O)oc(c34)c5c67)OC(C)C(O)C2O)C1O (configuration not stated) : T/C on nude mice, LX-1 lung xenograft intrarenal, tumor weight T/C = 63 % of control

# value of T/C, nude mice, LX-1 lung xenograft intrarenal, tumor weight T/C, item `ClCCCCCCCCCCc1ccccc1` = 260 % of control

Form field, T/C with nude mice, LX-1 lung xenograft intrarenal, tumor weight T/C, item `CCCCCC[C@H]([C@H](C)O)n1cnc2c(N)ncnc21` : 52 % of control

Entry `CCCCc1ccc(-n2c(C)c(COC(=O)NC)c(COC(=O)NC)c2C)cc1` under nude mice, LX-1 lung xenograft intrarenal, tumor weight T/C had T/C of 104 % of control

Per the reported nude mice, LX-1 lung xenograft intrarenal, tumor weight T/C data, `O=C(Nc1ccc(Cl)c(Cl)c1)Nc1c(Oc2ccc(Cl)c(Cl)c2)ccc(Cl)c1S(=O)(=O)O` has T/C of 43 % of control

The molecule `CCOC(=O)Nc1cc2c(c(N)n1)N=C(CN(C)c1ccccc1)CN2` on nude mice, LX-1 lung xenograft intrarenal, tumor weight T/C: T/C was 103 % of control

# `O=c1ssc(=Nc2ccccc2)n1-c1ccccc1` with nude mice, LX-1 lung xenograft intrarenal, tumor weight T/C: T/C is 77 % of control

Assay nude mice, LX-1 lung xenograft intrarenal, tumor weight T/C, sample `COc1c(CNC(=O)CCl)cc2[nH]c(C)cc2c1CNC(=O)CCl` , T/C read: 76 % of control

Let me check: `N#CC(C#N)=C/C=C/c1cccc([N+](=O)[O-])c1` , system nude mice, LX-1 lung xenograft intrarenal, tumor weight T/C, measured T/C is 69 % of control

====

Assign T/C to each entry below.
system: nude mice, LX-1 lung xenograft intrarenal, tumor weight T/C; assay: NCI In Vivo Anticancer Drug Screen. Data for tumor model Human Lung LX-1 Xenograft (intrarenal inoculation) in NU/NU Swiss (nude) mice; conditions: endpoint: mean tumor weight change; dose: 200.0 mg/kg/injection; schedule: Q01DX010 (sc); vehicle: Klucel (hydroxypropylcellulose) (HPC); higher = larger tumour
Records with an inconclusive call do not appear.

`Cc1ccc(S(=O)(=O)N/N=C/C(=O)O)cc1` has a reported T/C of 45 % of control

Lookup result for `C=CCNc1ccc(C)cc1` ; measured T/C: 42 % of control

compound `ClCCCCCCCCCCc1ccccc1` , T/C observed: 94 % of control

Consider `C/C(=C\c1ccccc1)[N+](=O)[O-]` . Its measured T/C is 196 % of control

Lab note: `Cc1cc(N(CCOS(C)(=O)=O)CCOS(C)(=O)=O)ccc1C=Nc1ccc(-c2nc(Cc3ccccc3)sc2C)cc1` gave T/C of 1 % of control

Form: compound = `COC(=O)Nc1cccc(-c2nc3ccc(NC(=O)OC)cc3c(=O)n2-c2ccccc2)c1` ; T/C = 84 % of control
